Assignment: determine reported pEC50 for the given binders.
assay.system: T1, human CCR8 (human, UniProt P51685 1-355)
T1 construct: also CHO-hCCR8-Ga15 / CHO/hCCR8.Gna15); also called hCCR8; huCCR8
T1 sequence (P51685 whole entry): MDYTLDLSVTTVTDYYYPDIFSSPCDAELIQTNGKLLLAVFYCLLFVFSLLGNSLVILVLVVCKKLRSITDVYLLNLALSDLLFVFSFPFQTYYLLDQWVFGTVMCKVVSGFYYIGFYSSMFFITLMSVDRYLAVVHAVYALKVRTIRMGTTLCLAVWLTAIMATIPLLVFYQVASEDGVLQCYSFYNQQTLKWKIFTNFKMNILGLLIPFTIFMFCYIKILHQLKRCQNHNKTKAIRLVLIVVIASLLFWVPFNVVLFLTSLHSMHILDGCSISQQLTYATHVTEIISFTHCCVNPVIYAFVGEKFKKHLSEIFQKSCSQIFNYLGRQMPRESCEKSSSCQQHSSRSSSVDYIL
procedure.details: flow cytometry titration on CHO cells stably expressing human CCR8 (14 h, room temperature)
Worth noting: pEC50 values are minus log10 of concentrations stated in mol/L.

Lab note: measured pEC50 of anti-CCR8 1889 WT antibody (parent) (antibody, V domains shown, The antibody has human IgG constant regions (detected with anti-human IgG)) VH: EVQLLESGGGLVQPGGSLRLSCAASGIDLSTYAMGWVREAPGKGLEWVGLIHRSGRTYYATWAKGRFTISKDSSKNTLYLQMNSLRAEDTAVYYCTRSYPDYSATASIWGQGTTVTVSS VL: DIQVTQSPSSLSASVGDRVTITCQASENIANALAWYQKKPGKPPKFLIYGASNLASGVPSRFSGSGSGTDFTFTISSLQPEDIATYYCQQAYYGNSFVEGTFGGGTKVEIK was 7.77

# pEC50 (binder: anti-CCR8 1889 S12P.I29V.E95dS.T57D.Y58A (PVSDA) (antibody, V domains shown, It is put together from the printed names of the heavy and light chain variants; also called I29V.E95dS.Y57D.Y58A) VH: EVQLLESGGGLVQPGGSLRLSCAASGIDLSTYAMGWVREAPGKGLEWVGLIHRSGRDAYATWAKGRFTISKDSSKNTLYLQMNSLRAEDTAVYYCTRSYPDYSATASIWGQGTTVTVSS VL: DIQVTQSPSSLPASVGDRVTITCQASENVANALAWYQKKPGKPPKFLIYGASNLASGVPSRFSGSGSGTDFTFTISSLQPEDIATYYCQQAYYGNSFVSGTFGGGTKVEIK ) is 9.03

Please fill in: pEC50 reported for anti-CCR8 1889 S12P.I29V.E95dS (PVS) (antibody, V domains shown) VH: EVQLLESGGGLVQPGGSLRLSCAASGIDLSTYAMGWVREAPGKGLEWVGLIHRSGRTYYATWAKGRFTISKDSSKNTLYLQMNSLRAEDTAVYYCTRSYPDYSATASIWGQGTTVTVSS VL: DIQVTQSPSSLPASVGDRVTITCQASENVANALAWYQKKPGKPPKFLIYGASNLASGVPSRFSGSGSGTDFTFTISSLQPEDIATYYCQQAYYGNSFVSGTFGGGTKVEIK = 9.18
